- assayedSystem: Mab TrmD (Mycobacteroides abscessus)
- Sequence (B1MDI3 entry or part of it): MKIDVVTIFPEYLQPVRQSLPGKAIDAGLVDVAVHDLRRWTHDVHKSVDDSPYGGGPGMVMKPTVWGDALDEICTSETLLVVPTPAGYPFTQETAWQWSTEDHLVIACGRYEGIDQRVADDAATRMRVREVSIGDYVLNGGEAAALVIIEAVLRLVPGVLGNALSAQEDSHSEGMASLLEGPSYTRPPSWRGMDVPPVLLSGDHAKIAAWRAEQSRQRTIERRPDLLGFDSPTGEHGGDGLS
- protocolDetails: Isothermal titration calorimetry (ITC)
- Format: binding
- setupConditions: Table 4; group efficiency of R^1
# GE (R^1) per record follows
measuredProperty: GE (R^1)

> print(dat)
                                   molecule                    endpointvalue
1  COc1cccc(Cn2ccc3ccc(-c4cc(N)n[nH]4)cc32)c1 [Compound 24b]  0.14 kcal mol^–1 per heavy atom
2  COc1ccc(Cn2ccc3ccc(-c4cc(N)n[nH]4)cc32)cc1 [Compound 24a]  0.04 kcal mol^–1 per heavy atom
3  Nc1cc(-c2ccc3ccn(Cc4ccccn4)c3c2)[nH]n1 [Compound 24f]  0.18 kcal mol^–1 per heavy atom
4  N#Cc1c(N)n[nH]c1-c1ccc2ccn(Cc3ccccn3)c2c1 [Compound 26f]  0.20 kcal mol^–1 per heavy atom
5  N#Cc1ccccc1Cn1ccc2ccc(-c3cc(N)n[nH]3)cc21 [Compound 24d]  0.15 kcal mol^–1 per heavy atom
6  Nc1cc(-c2ccc3ccn(Cc4ccccc4)c3c2)[nH]n1 [Compound 24c]  0.15 kcal mol^–1 per heavy atom
